System: MDA-MB-231
PROTOCOL_DESCRIPTION: Antiproliferative activity against human MDA-MB-231 cells after 24 hrs by MTT assay
Type: functional, cell-based
STATED_CONDITIONS: MDA-MB-231, 24 h
MEASURE: IC50 (µM)

Answered cases to consult:
>>> readout_value("Cc1ccc2c(=O)c3cccc(CC(=O)OCCCCCCOc4c5c(cc6c(=O)c7ccccc7oc46)CCC(C)(C)O5)c3oc2c1C")
1.13
>>> readout_value("CC1(C)CCc2cc3c(=O)c4ccccc4oc3c(O)c2O1")
59.3

[P] Cc1ccc2c(=O)c3cccc(CC(=O)OCCCCCOc4c5c(cc6c(=O)c7ccccc7oc46)CCC(C)(C)O5)c3oc2c1C
[Q] Cc1ccc2c(=O)c3cccc(CC(=O)OCCCOc4c5c(cc6c(=O)c7ccccc7oc46)CCC(C)(C)O5)c3oc2c1C
[R] Cc1ccc2c(=O)c3cccc(CC(=O)OCCCCOc4c5c(cc6c(=O)c7ccccc7oc46)CCC(C)(C)O5)c3oc2c1C
Ask: Arrange the 3 compounds by rising IC50, starting with the smallest. Return value: ordered labels per request.
Result: P, R, Q
(P: 11.2 µM, R: 19.6 µM, Q: 32.2 µM)

----------
Tested on: L02
PROTOCOL_DESCRIPTION: Antiproliferative activity against human HL-7702 cells after 48 hrs by MTT assay
Format: functional, cell-based
STATED_CONDITIONS: L02, 48 h
pIC50: −log10 of the molar value.
MEASURE: pIC50

Ask: Could you share which pIC50 value was measured for Cc1ccc2c(=O)c3cccc(CC(=O)OCCCCCCOc4c5c(cc6c(=O)c7ccccc7oc46)CCC(C)(C)O5)c3oc2c1C ?
Result: 3.45 to 3.53

----------
Tested on: K562
PROTOCOL_DESCRIPTION: Antiproliferative activity against human K562 cells co-treated with DMXAA at 1:1 molar ratio after 24 hrs by MTT assay
Format: functional, cell-based
STATED_CONDITIONS: K562, 24 h
MEASURE: IC50 (µM)
# value in µM; strip the unit string

Ask: Could you share which IC50 value was measured for CC1(C)CCc2cc3c(=O)c4ccccc4oc3c(O)c2O1 ?
Result: 19.1

----------
Test system: K562
PROTOCOL_DESCRIPTION: Antiproliferative activity against human K562 cells after 24 hrs by MTT assay
Type: functional, cell-based
STATED_CONDITIONS: K562, 24 h
MEASURE: IC50 (µM)

Answered cases to consult:
>>> readout_value("CC1(C)CCc2cc3c(=O)c4ccccc4oc3c(O)c2O1")
27.8
>>> readout_value("Cc1ccc2c(=O)c3cccc(CC(=O)OCCCCOc4c5c(cc6c(=O)c7ccccc7oc46)CCC(C)(C)O5)c3oc2c1C")
20.6
>>> readout_value("Cc1ccc2c(=O)c3cccc(CC(=O)OCCCCCCOc4c5c(cc6c(=O)c7ccccc7oc46)CCC(C)(C)O5)c3oc2c1C")
9.13

[a] Cc1ccc2c(=O)c3cccc(CC(=O)OCCCCCOc4c5c(cc6c(=O)c7ccccc7oc46)CCC(C)(C)O5)c3oc2c1C
[b] Cc1ccc2c(=O)c3cccc(CC(=O)OCCCOc4c5c(cc6c(=O)c7ccccc7oc46)CCC(C)(C)O5)c3oc2c1C
Ask: Sorting by IC50 in descending order, would a or b appear first? Response format: the label of the selected entry.
Result: b

Taken from ChEMBL document CHEMBL4138163.
